# TEST SUMMARY: yeast display, Sf9 membrane polyspecificity reagent, FACS + sequencing; frameworks hold sequencing errors

ORDERED RESIDUES	polyreactivity (PSR sort gate)
QVQLVESGGGLVQAGGSLRLSCAASGSILGVYTMGWYRQAPGKERELVAAITSSSSSTYADSVKGRFTISRDNAKNTVYLQMNSLKPEDTAVYYCATRGWSKQLYGGYTQYYYWGQGTQVTVSS	high polyreactivity
QVQLVESGGGLVQAGGSLRLSCAASGIIFHYYAMGWYRQAPGKEREFVASISFSGSSTYYADSVKGRFTISRDNAKNTVYLQMNSLKPEDTAVYYCAARYLYGPKYYYWGQGTQVTVSS	high polyreactivity
QVQLVESGGGLVQAGGSLRLSCAASGRIFKVYAMGWYRQAHGKEREMVAAITSRGGSTYYADSVKGRFTISRDNSKNTVYLQMNSLKPEDTAVYYCAAARGLPSNKYYYWGQGTQVTVSS	high polyreactivity
QVQLVESGGGLVQAGGRLRLSCAASGRTFYYNAMGWYRQAPGKERELVAAISSSGGRTYYADSVKGRFTISRDNAKNTVYLQMNSLKPEDTAVYYCAALTNARGFDYWGQGTQVTVSS	high polyreactivity
QVHLVESGGPLVQAGGSLRLSCAASGRIFQINAMVWYRQAPGKERELVAGITGSGGSTDYADSVKGRFTISRDKSKNTVYLQMNSLKPEDTAVYYCAADTYTDGYDYWGQGTQVTVSS	low polyreactivity
QVQLVESGGGLVQAGGSLRLSCAASGSTFYPYAMGWYRPAHGKERELVAAITSRVGRTYYADSVKGRFTISRDNAKNTVYLQMNSLKPEDTAVYYCAAKIFIRVHYYSYRMYYWGQGTQVTVSS	low polyreactivity
QVQLVESGGGLAQAGGSLRLSCAASGRTFVTNAMGWYRQAPGKERELVAAISKSGGRTYYADSVKGRFTISRDNAKNTVYLQMNSLKPEDTAVYYCAADKRYLSYDYWGQGTQVTVSS	high polyreactivity
QVQLVESGGGLVQAGGSLRLSCDASGRILHYYAMGWYRQAPGKERELVATISISGGNTRYADSVKGRFTISRDNAKNTVYLQMNSLKPEDTAVYYCDARPYAGFDNWGQGTQVTVSS	high polyreactivity
QVQLVESGGGLFQAGGSLRLSCAASVITFSQYVMGWYRQAPGKERELVAAISYRGGTTYYADSVKGRFTISRDNAKNTVYLQMISLKPEDTAVYYCATLPQRQYSTRDYWGQGTQVTVSA	high polyreactivity
QVQLVASGGGLVQAGGSLRLSCAASGSIFARYALGWYSQAPGKEREWVAALRWSGGRTYYADSVKGRFTISRDNAKNTVYLQMNSLKPEDTAVDYCNAVIHRLGKTYGTNRVDYWGQGTQVTVSS	high polyreactivity
QVQLEESGGGLVQAGGSLRLSCAASGFTFAYYAMGWYSQAPGKERELVAAISRSGGRTNYADSVKGRFTISRDNAKNTVYLQMNSLKPEETAVYYCNKQQTPRYWWSPYGGYDYWGQGTQGTVSS	high polyreactivity
QVQLVESGGGLVQAGGSLSLSCAAYGSTFDPNDMGWYRQAPGKERELVAVIDSGDGTTYYADSVKGRFTISRDNAKNTVYLQMNRLKPEDTAVYYCAVDESTSYYDDHEDYWGQGTQVTVSS	low polyreactivity
QVQLVESGGGLVQAGGSLRLSCAASGRTLASNAMGWYRQAPGKERELVAAINRGGSTYYADSVKGRFTISRDNAKNTVYLQMNSLKPEDTAVYYCRFYSYWSWLGREYDYWGQGTQVTVSS	low polyreactivity
QVQLVESGGGLVQAGGSLRLSCAASGSIFRGNAMGWYRQAPGKERELVAAITRSGGRTYYADSVKGRFTISRDNANNTVYLQMNCLKPEDTAVYFCAADYPYGSPTHFDYWGQGTQVTVSS	high polyreactivity
QVQLVESGGGLVQAGGSLRLSCAASGYTFLYYAMGWYRQAPGKEREFVAAISRSGGSTYYADSVKGRFTISRDNAKNTVYLQMISLKPEDTAVYYCAARFRYQHQRGDYWGQGTQVTVSS	high polyreactivity
QVQLVESGGGLVQAGGSLRLSCAPSGITFSYSAMGWYRQAPGKERELVAAISGSGTSTYYADSVKGRFTISRDNAKNTVYVQMNSLKPEVTAVYYCAAKGRKSVYSRNSWGQGTQVTVSS	high polyreactivity
QVQLVESGGGLVQAGGSLRLSCAASGRTFWYYAMGWYRQAPGKERELVAVINSSGGRTYYADSVKGRFTISRDNAKNTVYLQMNSLKPEDTAVYYCAAYRGVPSRYDYWGQGTQVTVSS	high polyreactivity
QVQLVESGGGLVQAGGSLRLSCAASGYTFDDYEMGWYRQAPGKERELVAAISRGGSTYYADSVKGRFTISRDNEKNTVYFQMNSLKPEDTAVYYCGAVYRVRKITYDYWGQGTQVTVSS	high polyreactivity
QVQLVESGGGLVQAGGSLRLSCAASGSNFANYAMGWYRQAPGKEREFVAGISGSGGSTFYADSVKGRFTISRDNAKNTVYLQMNSLKPEDTAVYYCAVVQRSKRTYPWYDYWGQGTQVTVSS	low polyreactivity
QFQLVESVGGLVQAGGSLRLSCAASGLNFSNYAMGWYRQAPGKERELVAVSSSRVSRTYYADSVKGRFTISRDNAKNTVYLQMISLKPEDTAVYYCAARDRTEFYYWGQGTQVTVSS	high polyreactivity
QVQLVESGGGLVQAGGSLRLSCAASGITIDVYGMGWYRQAPGKERELVASIRRRGGSTYYADSVKGRFTISRDNAKNTVYLQMNSLKPEDTAVYYCAAVPSDGHRIWSWDPYPEYDYWGQGTQVTVSS	low polyreactivity
